molecular target: CYP1B1 (via AhR) (Homo sapiens); test: Agonist activity at AhR in human HuH7 cells assessed as increase in CYP1B1 expression at 0.5 uM after 24 hrs by microarray analysis relative to control; type: ADME, cell-based; conditions: read-out: FC
Sequence (P35869 whole entry): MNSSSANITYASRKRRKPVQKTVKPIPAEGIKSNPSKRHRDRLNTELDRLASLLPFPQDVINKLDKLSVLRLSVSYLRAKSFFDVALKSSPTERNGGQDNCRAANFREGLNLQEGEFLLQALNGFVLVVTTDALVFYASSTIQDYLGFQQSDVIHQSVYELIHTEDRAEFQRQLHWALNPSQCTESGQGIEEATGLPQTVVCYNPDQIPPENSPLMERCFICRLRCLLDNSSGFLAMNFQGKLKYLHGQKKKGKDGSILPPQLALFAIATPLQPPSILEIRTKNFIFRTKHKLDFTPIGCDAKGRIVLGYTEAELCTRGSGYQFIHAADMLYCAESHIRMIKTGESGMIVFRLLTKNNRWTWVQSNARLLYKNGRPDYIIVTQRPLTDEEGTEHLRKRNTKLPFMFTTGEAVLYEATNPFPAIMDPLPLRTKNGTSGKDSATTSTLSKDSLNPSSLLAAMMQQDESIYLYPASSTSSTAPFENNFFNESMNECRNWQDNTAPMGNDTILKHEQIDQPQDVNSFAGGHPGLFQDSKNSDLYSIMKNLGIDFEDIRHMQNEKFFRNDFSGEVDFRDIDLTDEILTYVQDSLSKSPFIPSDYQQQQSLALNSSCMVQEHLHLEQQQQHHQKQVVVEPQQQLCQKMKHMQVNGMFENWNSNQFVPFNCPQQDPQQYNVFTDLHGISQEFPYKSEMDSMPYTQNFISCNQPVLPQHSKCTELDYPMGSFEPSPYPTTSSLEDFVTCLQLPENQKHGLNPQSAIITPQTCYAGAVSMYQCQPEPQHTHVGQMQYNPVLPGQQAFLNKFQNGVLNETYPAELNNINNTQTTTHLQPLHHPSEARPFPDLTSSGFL
test readout: fold induction at 24 h, 0.5 µM

Bench note: what fold induction at 24 h, 0.5 µM did O=C1Nc2ccccc2/C1=C\c1nnc2ccccc2c1Cl show?
1.35

----------
molecular target: CYP1A1 (via AhR) (Homo sapiens); experiment: Agonist activity at AhR in human HuH7 cells assessed as increase in CYP1A1 expression at 0.5 uM after 24 hrs by microarray analysis relative to control; format: ADME, cell-based; details: read-out: FC
Sequence (P35869 whole entry): as above
test readout: fold induction at 24 h, 0.5 µM
Give bare numbers.

What reported fold induction at 24 h, 0.5 µM corresponds to O=C1Nc2ccccc2/C1=C\c1nnc2ccccc2c1Cl on CYP1A1 (via AhR) (Homo sapiens)?
3.28

Where do these numbers come from? They come from ChEMBL document CHEMBL4373644.
